These measurements were taken from patent US9682965B2.

# Tested on: Diet Induced Obese (DIO) C57BL/6 mice
# PROTOCOL_DETAILS: 10 day DIO mouse model (body weight, food intake, hematology, blood chemistry)
# Format: in vivo
# RUN_CONDITIONS: 240 h; DIO mouse, 0.3 mpk sc, once a day for 10 days; read-out: DIO Mouse 10-day weight loss vs vehicle
Counter-ions that a name gives are not always drawn.
ENDPOINT_LABEL: inhibition in vivo at 0.3 mg/kg (%)
Numeric only. Scale: %

Query: inhibition in vivo at 0.3 mg/kg lookup needed for CO[C@@H]1[C@H](OC(=O)N2CC(CCN3C4CCC3CC4)C2)CC[C@]2(CO2)[C@H]1[C@@]1(C)O[C@@H]1CC=C(C)C , thanks.
Response: 0.5

Query: What do you get for CO[C@@H]1[C@H](OC(=O)N2CC(=CCN3CCN(CC(F)F)CC3)C2)CC[C@]2(CO2)[C@H]1[C@@]1(C)O[C@@H]1CC=C(C)C ?
Response: 21.3

Query: What do you get for CCN(CC)CC[C@@H]1CCCN1C(=O)O[C@@H]1CC[C@]2(CO2)[C@@H]([C@@]2(C)O[C@@H]2CC=C(C)C)[C@@H]1OC [Example 51, formate] ?
Response: 4.3

Query: What do you get for CO[C@@H]1[C@H](OC(=O)N2CC(OC(=O)N3CCN(C)CC3)C2)CC[C@]2(CO2)[C@H]1[C@@]1(C)O[C@@H]1CC=C(C)C ?
Response: 10.7

Query: What do you get for CCN(CC)CC[C@H]1CCN(C(=O)O[C@@H]2CC[C@]3(CO3)[C@@H]([C@@]3(C)O[C@@H]3CC=C(C)C)[C@@H]2OC)C1 [Example 53] ?
Response: 10.9

Query: What do you get for CO[C@@H]1[C@H](OC(=O)N2CC(CCN3CC4(COC4)C3)C2)CC[C@]2(CO2)[C@H]1[C@@]1(C)O[C@@H]1CC=C(C)C ?
Response: 3.1

----------
# System: Diet Induced Obese (DIO) C57BL/6 mice
# PROTOCOL_DETAILS: 10 day DIO mouse model (body weight, food intake, hematology, blood chemistry)
# Type: in vivo
# RUN_CONDITIONS: 240 h; DIO mouse, 0.3 mpk sc, once a day for 10 days; read-out: DIO Mouse 10-day weight loss vs vehicle
Counter-ions that a name gives are not always drawn.
Assign inhibition in vivo at 0.3 mg/kg to each entry below.
Numeric only. Scale: %

Query: API: value(readout= inhibition in vivo at 0.3 mg/kg, system= Diet Induced Obese (DIO) C57BL/6 mice, query= CCN(CC)C[C@H]1CCCN1C(=O)O[C@@H]1CC[C@]2(CO2)[C@@H]([C@@]2(C)O[C@@H]2CC=C(C)C)[C@@H]1OC [Example 60, formate] )
Response: 6.3

Query: What do you get for CO[C@@H]1CCN(CCC2CN(C(=O)O[C@@H]3CC[C@]4(CO4)[C@@H]([C@@]4(C)O[C@@H]4CC=C(C)C)[C@@H]3OC)C2)C1 ?
Response: 4.1

Query: What do you get for CO[C@@H]1[C@H](OC(=O)N2CC[C@@H](CN3CCOCC3)C2)CC[C@]2(CO2)[C@H]1[C@@]1(C)O[C@@H]1CC=C(C)C [Example 37, formate] ?
Response: 11.1

----------
# Test system: Diet Induced Obese (DIO) C57BL/6 mice
# PROTOCOL_DETAILS: 10 day DIO mouse model (body weight, food intake, hematology, blood chemistry)
# Format: in vivo
# RUN_CONDITIONS: 240 h; DIO mouse, 0.3 mpk sc, once a day for 10 days; read-out: DIO Mouse 10-day weight loss vs vehicle
Assign inhibition in vivo at 0.3 mg/kg to each entry below.
Numeric only. Scale: %

Query: inhibition in vivo at 0.3 mg/kg lookup needed for CO[C@@H]1[C@H](OC(=O)N2CC(CCN3CCC3)C2)CC[C@]2(CO2)[C@H]1[C@@]1(C)O[C@@H]1CC=C(C)C , thanks.
Response: 4.3

Query: What do you get for CO[C@@H]1[C@H](OC(=O)N2CC(CCN3CC[C@H](F)C3)C2)CC[C@]2(CO2)[C@H]1[C@@]1(C)O[C@@H]1CC=C(C)C ?
Response: 12.7

Query: What do you get for CO[C@@H]1[C@H](OC(=O)N2CC(CCN3CC(C(=O)N(C)C)C3)C2)CC[C@]2(CO2)[C@H]1[C@@]1(C)O[C@@H]1CC=C(C)C ?
Response: 6.7
